Data provenance: PubChem BioAssay (NCATS)

Assay Name: Quantitative highthroughput screen to assess conditional lethalithy of P12 Ichikawa cells grown in Human Plasma-Like Medium with dialyzed fetal bovine serum (HPLM+ds) (AID 1963879); also: nearly all actives have a fitted effect of over 35% in size
Condition Notes: ATP luminescence, 48 h; viability; series mostly up to 45.8 µM
Inconclusive results are not listed. Active and inactive are the calls of the source. Calls follow the shape of the dose curve; as a rule, active = well fitted cell-killing curve with a large enough effect; inconclusive = small, poorly fitted or top-dose-only effect; inactive = flat fitted curve, though single readings scatter.
Field 'call' accepts TRUE (active), FALSE (inactive)

| Compound | Category Label |
| --- | --- |
| CC1(C)CCC(c2ccc(Cl)cc2)=C(CN2CCN(c3ccc(C(=O)NS(=O)(=O)c4ccc(N[C@H](CCN5CCOCC5)CSc5ccccc5)c(S(=O)(=O)C(F)(F)F)c4)cc3)CC2)C1 | TRUE |
| C=C1c2cccc(O)c2C(O)=C2C(=O)[C@@]3(O)C(O)=C(C(N)=O)C(=O)[C@@H](N(C)C)[C@@H]3[C@@H](O)[C@H]12 | FALSE |
| CC(=O)CC(c1ccccc1)c1c(O)c2ccccc2oc1=O (centres undefined) | FALSE |

[ask] GET /call?item= Cc1cccc(C#Cc2ccccc2)n1 returns the recorded outcome of this test.
[reply] FALSE

[ask] GET /call?item= COc1cc(Nc2nc3ccccc3nc2NS(=O)(=O)c2ccc(NC(=O)c3ccc(C)c(OC)c3)cc2)cc(OC)c1 returns the recorded outcome of this test.
[reply] TRUE

[ask] GET /call?item= Cc1c(-c2ccnn2C)cc(C(=O)NCc2ccc(S(C)(=O)=O)cn2)c(=O)n1-c1cccc(C(F)(F)F)c1 returns the recorded outcome of this test.
[reply] FALSE

[ask] GET /call?item= O=C(Cc1cccc(OC(F)(F)F)c1)Nc1ccc(CCCCc2nnc(NC(=O)Cc3ccccn3)s2)nn1 returns the recorded outcome of this test.
[reply] FALSE

[ask] GET /call?item= CCCOc1ccc(C(=O)OCCN(CC)CC)cc1N returns the recorded outcome of this test.
[reply] FALSE

[ask] GET /call?item= O=C(O)C=Cc1ccc(Cn2ccnc2)cc1 returns the recorded outcome of this test.
[reply] FALSE

[ask] GET /call?item= NC(=O)c1cnccn1 returns the recorded outcome of this test.
[reply] FALSE

[ask] GET /call?item= COc1cccc2c(NCc3ccccc3)nc(-n3c(N)nc4ccccc43)nc12 returns the recorded outcome of this test.
[reply] TRUE

[ask] GET /call?item= Cc1cn([C@@H]2O[C@H](CO)[C@@H](O)[C@H]2F)c(=O)[nH]c1=O returns the recorded outcome of this test.
[reply] FALSE

[ask] GET /call?item= CCC[C@H](Nc1nc(-c2ccc(NC(=O)NCC)c(OC)c2)ncc1C)c1cccnc1 returns the recorded outcome of this test.
[reply] TRUE

[ask] GET /call?item= CCC(=C(c1ccc(O)cc1)c1ccc(OCCNC)cc1)c1ccccc1 returns the recorded outcome of this test.
[reply] TRUE

[ask] GET /call?item= Clc1ccc(C(c2ccccc2Cl)C(Cl)Cl)cc1 (centres undefined) returns the recorded outcome of this test.
[reply] FALSE

[ask] GET /call?item= COc1cc2c(Nc3ccc(NC(=O)c4ccccc4)cc3)ncnc2cc1OCCCN1CCOCC1 returns the recorded outcome of this test.
[reply] TRUE

[ask] GET /call?item= NC(=O)NN=Cc1ccc([N+](=O)[O-])o1 returns the recorded outcome of this test.
[reply] FALSE

[ask] GET /call?item= COc1ccccc1[C@H](c1cccc2ccccc12)[C@@](C)(C#N)C(=O)N1CCC(c2cccc(C(F)(F)F)c2)CC1 returns the recorded outcome of this test.
[reply] TRUE

[ask] GET /call?item= COc1cc2nc(N3CCCN(C)CC3)nc(NC3CCN(Cc4ccccc4)CC3)c2cc1OC returns the recorded outcome of this test.
[reply] TRUE

[ask] GET /call?item= CN(NC(=O)CC(=O)NN(C)C(=S)c1ccccc1)C(=S)c1ccccc1 returns the recorded outcome of this test.
[reply] TRUE

[ask] GET /call?item= CCOC(=O)N1CCC(=C2c3ccc(Cl)cc3CCc3cccnc32)CC1 returns the recorded outcome of this test.
[reply] FALSE

[ask] GET /call?item= CN(C)C(=N)N=C(N)N returns the recorded outcome of this test.
[reply] TRUE
